Reference for the values: patent US9206432B2

# Test system: lacZ under control of the tetA promoter (PtetA) in E. coli KM3
# Assay type: cell-based
# experimental.parameters: Table 4; rimsulfuron 20 ppm; 48 hrs at 30° C.
endpoint.name: relative β-galactosidase activity, inducer Rs
Keep the answer to the number alone.

{"molecule": "L1-29: SU-responsive TetR(B) variant, library L1 hit, SEQ ID NO: 10 (protein, Sulfonylurea responsive repressor L1-29) MGSRLDKSKVINSALELLNEVGIEGLTTRKLAQKLGVEQPTLYWHVKNKRALLDALAIEMMDRHQTHFCPLEGESWQDFLRNTAKSMRCALLSHRDGAKVWLGTRWTEKQYETPENMLAFLCQQGFSLENALYAWSAVCNFTLGCVLSDQERQVAKEERETPTTDSMPPLLRQAWELSDHQGAEPAFLFGLELIICGLEKQLKCESGS", "data.value": 0.1}

Then there is this molecule:
Item under review: L1-20: SU-responsive TetR(B) variant, library L1 hit, SEQ ID NO: 6 (protein, Sulfonylurea responsive repressor L1-20) MGSRLDKSKVINSALELLNEVGIEGLTTRKLAQKLGVEQPTLYWHVKNKRALLDALAIEMMDRHQTHFCPLEGESWQDFLRNNAKSMRCALLSHRDGAKVFLGTAWTEKQYETVENLLAFLCQQGFSLENALYALNAVATFTLGCVLWDQEKQVAKEERETPTTDSMPPLLRQAHELGDHQGAEPAFLFGLELIICGLEKQLKSESGS . Reported relative β-galactosidase activity, inducer Rs?
2.0
